IC50 values recorded for JAK3 kinase (Homo sapiens (Human))

get_value(item= CC(C)Nc1c(C(=O)N[C@H]2CC[C@H](N)CC2)cnn2cc(-c3cccnc3)cc12 , readout=IC50) returns ~43 µM

get_value(item= COC(=O)N[C@H]1CC[C@H](NC(=O)c2cnn3cc(-c4ccncc4)cc3c2NC(C)C)CC1 , readout=IC50) returns > 50 µM

Input CC(C)Nc1c(C(=O)NC[C@@H](F)C(C)(C)O)cnc2cc(-c3ccc(C#N)cc3)nn12 . Output IC50: > 50 µM

Sure, the documented IC50 for CC(C)Nc1c(C(=O)NC[C@@H](F)C(C)(C)O)cnn2cc(-c3cnn4cc(Cl)cnc34)cc12 is > 9.9 µM

Lab note: CC(C)Nc1c(C(=O)NC[C@@H](F)C(C)(C)O)cnn2cc(Nc3ccncn3)cc12 gave IC50 of > 50 µM

State recorded IC50 for all listed compounds.
1. CC(C)(O)[C@H](F)CNC(=O)c1cnc2cc(-c3ccncc3F)nn2c1NCCC1CCCCO1 (stereo partly shown)
2. COc1cc(-c2cc3c(NC4CCOCC4)c(C(=O)NC[C@@H](F)C(C)(C)O)cnn3c2)ccn1
3. CC(C)Nc1c(C(=O)NCCN2CCOCC2)cnn2cc(-c3cn[nH]c3)nc12
4. CC(C)Nc1c(C(=O)NC[C@@H](F)C(C)(C)O)cnn2cc(-c3ccc(C#N)cc3)cc12
5. CC(C)(O)CCNc1c(C(=O)NC[C@@H](F)C(C)(C)O)cnn2cc(-c3cccc(F)c3)cc12
6. CC(C)Nc1c(C(=O)NC[C@@H](F)C(C)(C)O)cnn2cc(-c3ccnc(N4CCOCC4)c3F)cc12
7. CC(C)Nc1c(C(=O)NC[C@@H](F)C(C)(C)O)cnn2cc(C#N)cc12

Reply:
1: > 50 µM; 2: > 50 µM; 3: > 50 µM; 4: 20 µM; 5: > 50 µM; 6: ~50 µM; 7: > 50 µM
